# experiment: NFkB reporter suppression in cystic fibrosis bronchial cells – cell-based, uHTS hits, panel, cytotoxicity readout, dose response (AID 624344)
# assay context: CF bronchial epithelial cells, PAF-induced NFkB reporter inhibition; with PAF, mean of runs
Active and inactive are the calls of the source. The rule behind the calls is not given here.
Possible outcomes: active, inactive

{"compound": "Nc1nccc(-c2ccc(-n3cnc4ccccc43)cc2)n1", "qualitative label": "active"}
{"compound": "COc1ccc(-n2nnnc2C(c2cccs2)N2CCC(n3c(=O)[nH]c4ccccc43)CC2)cc1 (stereo not given)", "qualitative label": "active"}
{"compound": "COc1cc(NC(=O)c2csc(-c3ccncc3)n2)cc(C(=O)Nc2cccc(C(F)(F)F)c2)c1", "qualitative label": "active"}
{"compound": "CN(c1cccc(Cl)c1)S(=O)(=O)c1cccc(C(=O)Nc2nc3ccccc3[nH]2)c1", "qualitative label": "active"}
{"compound": "O=C(NCc1ccccc1)C1=C[C@H](c2csc3ccccc23)C[C@H](OCc2ccc(CO)cc2)O1", "qualitative label": "inactive"}
{"compound": "CCc1ccccc1NC(=O)CN(C)C(=O)Cn1ncc(Cl)c(Cl)c1=O", "qualitative label": "active"}
{"compound": "CC(=O)OC1(C)CC(C)C(=O)C(C(O)CC2CC(=O)NC(=O)C2)C1 (stereo not given)", "qualitative label": "active"}
{"compound": "COc1ccc(OC)c(-c2nnc3n2N=C(c2ccc(OC)c(OCC4CC4)c2)CS3)c1", "qualitative label": "active"}
{"compound": "COc1cc(C2c3cc4c(cc3C(O)C3COC(=O)C23)OCO4)cc(OC)c1OC (stereo not given)", "qualitative label": "inactive"}
{"compound": "COc1cc2c(Cc3ccccc3)cncc2cc1O", "qualitative label": "active"}
